Value source: patent US20260306680A1

Please go through the items and note down their tissue uptake at 1 h.
- Protocol Text: Ex vivo biodistribution in mice bearing LNCaP tumor xenografts
- Set-up: species or system mouse (male NOD-scid IL2Rg^null (NSG))
- Condition Context: mouse, kidneys, iv, 1 h post-injection, mean ± SD; read-out: Kidneys uptake
Just the number in %ID/g, nothing appended.

Enquiry: Consider the compound O=C(O)CCC[C@H](NC(=O)N[C@@H](CCCCNC(=O)[C@H](Cc1c2ccccc2cc2ccccc12)NC(=O)[C@H]1CC[C@H](CNC(=O)[C@H](CCCCNC(=O)c2ccc(F)nc2)NC(=O)CN(CC(=O)O)CC(=O)O)CC1)C(=O)O)C(=O)O [^18F-KL01040] and give its measured tissue uptake at 1 h.
Return: 33.2

Enquiry: Consider the compound O=C(O)CCC[C@H](NC(=O)N[C@@H](CCCCNC(=O)[C@H](Cc1c2ccccc2cc2ccccc12)NC(=O)[C@H]1CC[C@H](CNC(=O)CNC(=O)[C@H](CCCCNC(=O)c2ccc(F)nc2)NC(=O)CN(CC(=O)O)CC(=O)O)CC1)C(=O)O)C(=O)O [^18F-KL01130] and give its measured tissue uptake at 1 h.
Return: 19

Enquiry: Consider the compound O=C(O)CC[C@H](NC(=O)N[C@@H](CCCCNC(=O)[C@H](Cc1c2ccccc2cc2ccccc12)NC(=O)[C@H]1CC[C@H](CNC(=O)[C@H](CCNC(=O)c2ccc(F)nc2)NC(=O)CCC(=O)N(CC(=O)O)CC(=O)O)CC1)C(=O)O)C(=O)O [^18F-KL01120] and give its measured tissue uptake at 1 h.
Return: 88.1
